test system: COLO 205 colorectal tumor cells; assay: Tumor cell viability inhibition assay (CellTiter-Glo 2.0, 72 hours); format: cell-based; conditions: Homo sapiens, COLO 205, 72 h, COLO 205 cell viability
pIC50: −log10 of the molar value.
VALUE_TYPE: pIC50

Form: molecule = Cc1csc(C2CCN([C@H]3CCc4nc(C)n(CCOc5ccc(Cl)cc5-c5cc(C)nc6c(C(=O)O)csc56)c(=O)c4C3)CC2)n1 (single isomer, unassigned) ; pIC50 = > 5.30

Form: molecule = Cc1cc(-c2cc(Cl)ccc2OCCn2c(C)nc3c(c2=O)C[C@@H](N2CCC(c4cnn(C)c4)CC2)CC3)c2scc(C(=O)O)c2n1 (single isomer, unassigned) ; pIC50 = > 5.30

Form: molecule = Cc1cc(-c2cc(Cl)ccc2OCCn2c(C)nc3c(c2=O)CC(N(C)Cc2ccncc2)CC3)c2sccc2n1 (centres unmarked) ; pIC50 = 4.70 to 5.30

Form: molecule = Cc1cc(-c2cc(Cl)ccc2OCCn2c(C)nc3c(c2=O)C[C@@H](N2CCCC[C@H]2c2cccc(F)c2)CC3)c2scc(C(=O)O)c2n1 (single isomer, unassigned) ; pIC50 = > 5.30

Form: molecule = Cc1cc(-c2cc(Cl)ccc2OCCn2c(C(F)(F)F)nc3c(c2=O)CC(N2CCC(OC(F)(F)F)CC2)CC3)c2scc(C(=O)O)c2n1 (single isomer, unassigned) ; pIC50 = < 4.70

====

tested on: COLO 205 colorectal tumor cells; assay: Tumor cell viability inhibition assay (CellTiter-Glo 2.0, 72 hours); type: cell-based; details: Homo sapiens, COLO 205, 72 h, COLO 205 cell viability
Assign IC50 to each entry below.

Form: molecule = Cc1cc(-c2cc(Cl)ccc2OCCn2c(C)nc3c(c2=O)C[C@@H](N2CCC4(CC2)NC(=O)NC4=O)CC3)c2scc(C(=O)O)c2n1 (single isomer, unassigned) ; IC50 = < 5 µM

Form: molecule = Cc1cc(-c2cc(Cl)ccc2OCCn2c(C)nc3c(c2=O)CC(N2CC4COCC4C2)CC3)c2scc(C(=O)NS(C)(=O)=O)c2n1 (single isomer, unassigned) ; IC50 = < 5 µM

Form: molecule = Cc1cc(-c2cc(Cl)ccc2OCCn2c(C)nc3c(c2=O)CC(N2CCC4(CC2)CN(CC(F)(F)F)CCO4)CC3)c2scc(C(=O)O)c2n1 (single isomer, unassigned) ; IC50 = < 5 µM

====

system: COLO 205 colorectal tumor cells; assay: Tumor cell viability inhibition assay (CellTiter-Glo 2.0, 72 hours); format: cell-based; conditions: Homo sapiens, COLO 205, 72 h, COLO 205 cell viability
pIC50: −log10 of the molar value.
VALUE_TYPE: pIC50

Form: compound = Cc1cc(-c2cc(Cl)ccc2OCCn2c(C)nc3c(c2=O)CC(N2CC4(COC4)C2)CC3)c2scc(C(=O)O)c2n1 (stereo not drawn) [Compound 20] ; pIC50 = > 5.30

Form: compound = Cc1cc(-c2cc(Cl)ccc2OCCn2c(C)nc3c(c2=O)CC(N2CCCCC2)CC3)c2scc(C(=O)NS(C)(=O)=O)c2n1 (single isomer, unassigned) [Compound 241] ; pIC50 = > 5.30

Form: compound = Cc1cc(-c2cc(Cl)ccc2OCCn2c(C)nc3c(c2=O)C[C@@H](N2CC[C@H](C(F)F)C2)CC3)c2scc(C(=O)O)c2n1 (single isomer, unassigned) [Compound 113] ; pIC50 = > 5.30

Form: compound = Cc1nc2c(c(=O)n1CC#Cc1ccc(Cl)cc1-c1ccnc3c(C(=O)O)csc13)CC(N1CCCCC1)CC2 (stereo not drawn) [Compound 357] ; pIC50 = > 5.30

Form: compound = Cc1cc(-c2cc(Cl)ccc2OCCn2c(C)nc3c(c2=O)C[C@H](N2CCCC[C@H]2C)CC3)c2scc(C(=O)O)c2n1 (single isomer, unassigned) [Compound 408] ; pIC50 = 4.70 to 5.30

Form: compound = Cc1cc(-c2cc(Cl)ccc2OCCn2c(C)nc3c(c2=O)C[C@@H](N2CCO[C@@H](COC(F)(F)F)C2)CC3)c2scc(C(=O)O)c2n1 (single isomer, unassigned) [Compound 479] ; pIC50 = > 5.30
